Target: T1, human CCR8 (human, UniProt P51685 1-355)
T1 construct: Native CCR8 on human PBMC (CCR8+ CD3+ or CCR8+ CD4+ lymphocytes); also called chemokine (C-C motif) receptor 8
T1 sequence (P51685 whole entry): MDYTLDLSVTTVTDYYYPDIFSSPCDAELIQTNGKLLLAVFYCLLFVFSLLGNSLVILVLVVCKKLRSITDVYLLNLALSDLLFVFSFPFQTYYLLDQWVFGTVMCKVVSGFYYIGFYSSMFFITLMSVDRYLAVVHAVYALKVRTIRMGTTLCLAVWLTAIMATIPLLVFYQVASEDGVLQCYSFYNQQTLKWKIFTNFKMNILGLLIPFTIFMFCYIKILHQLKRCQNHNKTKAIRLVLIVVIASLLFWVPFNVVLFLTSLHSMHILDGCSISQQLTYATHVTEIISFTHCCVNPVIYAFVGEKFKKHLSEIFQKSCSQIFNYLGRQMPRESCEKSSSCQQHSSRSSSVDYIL
Assay: flow blocking, PBMC CCR8+CD4+; competitor PE-AB12
MEASUREMENT LABEL: % Positive cells

[[record]]
binder = "AB3 (antibody, V domains shown, Hybridoma monoclonal; also called antibody 3; clone 3) VH: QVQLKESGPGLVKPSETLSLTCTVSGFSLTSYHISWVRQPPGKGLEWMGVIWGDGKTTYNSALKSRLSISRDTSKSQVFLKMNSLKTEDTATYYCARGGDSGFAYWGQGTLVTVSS VL: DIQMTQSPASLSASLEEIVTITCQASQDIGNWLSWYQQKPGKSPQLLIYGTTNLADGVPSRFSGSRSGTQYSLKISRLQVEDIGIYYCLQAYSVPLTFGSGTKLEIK"
observed_measurement = "1.77%"

[[record]]
binder = "AB15 (antibody, V domains shown, Hybridoma monoclonal; Same VH/VL entries as AB14; also called antibody 15; clone 15) VH: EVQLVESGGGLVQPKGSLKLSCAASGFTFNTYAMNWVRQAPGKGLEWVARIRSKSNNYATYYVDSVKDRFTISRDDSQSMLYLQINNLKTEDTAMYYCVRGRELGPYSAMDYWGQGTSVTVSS VL: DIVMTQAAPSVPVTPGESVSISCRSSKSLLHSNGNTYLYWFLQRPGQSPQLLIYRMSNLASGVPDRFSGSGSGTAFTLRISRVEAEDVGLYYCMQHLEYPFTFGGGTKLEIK"
observed_measurement = "0.01%"

[[record]]
binder = "AB8 (antibody, V domains shown, Hybridoma monoclonal; also called antibody 8; clone 8) VH: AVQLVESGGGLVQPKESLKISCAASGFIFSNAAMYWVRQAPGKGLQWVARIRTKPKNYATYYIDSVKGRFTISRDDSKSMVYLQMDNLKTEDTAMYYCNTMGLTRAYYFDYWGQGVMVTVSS VL: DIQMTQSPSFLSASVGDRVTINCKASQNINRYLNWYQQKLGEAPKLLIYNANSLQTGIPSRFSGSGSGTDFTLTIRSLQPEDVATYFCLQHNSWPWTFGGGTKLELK"
observed_measurement = "0.02%"

